target: human GLP-1 receptor (human, UniProt P43220 24-463); assay: cell-based or functional assay
Positions of bridges follow the written chain, without caps; N, C: chain ends. Non-standard residues stand in square brackets, D forms with d. No end group written: not given here. *: point of attachment. Acetyl(2-(4-imidazolyl)) = O=C(Cc1c[nH]cn1)*; Aib = CC(C)(N)C(=O)O
attribute-measured: In vitro Activity Compared to Native Peptide (%) vs. GLP-1
Your answer should be a plain number; it is taken to be in %.

// solved cases for In vitro Activity Compared to Native Peptide (%) vs. GLP-1 follow
binder	measured-value
Y[Aib]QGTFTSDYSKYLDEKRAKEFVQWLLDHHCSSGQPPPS (bridge 16-20) [triple agonist of SEQ ID NO: 43]	12.6
[Acetyl(2-(4-imidazolyl))]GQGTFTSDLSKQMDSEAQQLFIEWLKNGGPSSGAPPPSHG [triple agonist of SEQ ID NO: 16]	2.1
[Acetyl(2-(4-imidazolyl))]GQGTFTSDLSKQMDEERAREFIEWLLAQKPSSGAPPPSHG [triple agonist of SEQ ID NO: 17]	0.2

Task: Find the recorded In vitro Activity Compared to Native Peptide (%) vs. GLP-1 belonging to Y[Aib]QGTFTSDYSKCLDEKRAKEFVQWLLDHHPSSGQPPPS (bridge 16-20) [triple agonist of SEQ ID NO: 22] and report it.
Output: 20.1

Task: Please look up its In vitro Activity Compared to Native Peptide (%) vs. GLP-1: H[Aib]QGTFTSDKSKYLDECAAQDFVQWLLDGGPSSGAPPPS [triple agonist of SEQ ID NO: 41]
Output: 34.3

Task: Name the recorded In vitro Activity Compared to Native Peptide (%) vs. GLP-1 for H[Aib]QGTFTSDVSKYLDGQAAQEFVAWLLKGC [triple agonist of SEQ ID NO: 8] .
Output: 14.2

Values from patent US20230118307A1
